# pIC50 per entry
- Test system: breast cancer MDA-MB-468
- assay_remarks: Cytotoxicity towards tumor cells
- Type: cell-based
- test_settings: Homo sapiens, MDA-MB-468, 48 h
pIC50: −log10 of the molar value.
quantity: pIC50

[[record]]
compound = "N[C@@H](Cc1ccc(N(CCCl)CCCl)cc1)C(=O)O"
measured_number = 4.31

[[record]]
compound = "O=C(O)CCCc1ccc(N(CCCl)CCCl)cc1"
measured_number = 4.46


###

# Disappearance of starting materials: Time of completion per entry
- assay_remarks: Monomer reaction with H2O2 by NMR analysis
- Format: physicochemical
- test_settings: DMSO/deuterated phosphate buffer pH 8 (3:2), with H2O2
quantity: Disappearance of starting materials: Time of completion (min)

[[record]]
compound = "COc1cc(CBr)c(B2OC(C)(C)C(C)(C)O2)c(CBr)c1"
measured_number = 42

[[record]]
compound = "COc1cc(COC(C)=O)c(B2OC(C)(C)C(C)(C)O2)c(COC(C)=O)c1"
measured_number = 480

[[record]]
compound = "CC(=O)OCc1cc(O)cc(COC(C)=O)c1B1OC(C)(C)C(C)(C)O1"
measured_number = 480

[[record]]
compound = "CC(=O)OCc1cccc(COC(C)=O)c1B1OC(C)(C)C(C)(C)O1"
measured_number = 240

[[record]]
compound = "CC1(C)OB(c2c(CBr)cccc2CBr)OC1(C)C"
measured_number = 60

[[record]]
compound = "CC1(C)OB(c2c(CBr)cc(O)cc2CBr)OC1(C)C"
measured_number = 40


Origin of measurements: paper PMC5652303
